Catalogue of half-life readings, one per entry.
# RUN DESCRIPTION: Pharmacokinetics of ginsenosides in human plasma after single or repeated
# Format: in vivo
# TEST CONTEXT: male, human, plasma, po, 3 pouches of red ginseng extract, t1/2, single dose of red ginseng extract, human plasma
PROPERTY: half-life (h)

CC(C)=CCC[C@](C)(O[C@@H]1O[C@H](CO)[C@@H](O)[C@H](O)[C@H]1O)[C@H]1CC[C@]2(C)[C@@H]1[C@H](O)C[C@@H]1[C@@]3(C)CC[C@H](O[C@@H]4O[C@H](CO)[C@@H](O)[C@H](O)[C@H]4O[C@@H]4O[C@H](CO)[C@@H](O)[C@H](O)[C@H]4O)C(C)(C)[C@@H]3CC[C@]12C 24
CC(C)=CCC[C@](C)(O[C@@H]1O[C@H](CO[C@@H]2O[C@H](CO)[C@@H](O)[C@H](O)[C@H]2O)[C@@H](O)[C@H](O)[C@H]1O)[C@H]1CC[C@]2(C)[C@@H]1[C@H](O)C[C@@H]1[C@@]3(C)CC[C@H](O[C@@H]4O[C@H](CO)[C@@H](O)[C@H](O)[C@H]4O[C@@H]4O[C@H](CO)[C@@H](O)[C@H](O)[C@H]4O)C(C)(C)[C@@H]3CC[C@]12C 35
CC(C)=CCC[C@](C)(O[C@@H]1O[C@H](CO[C@@H]2O[C@@H](CO)[C@H](O)[C@H]2O)[C@@H](O)[C@H](O)[C@H]1O)[C@H]1CC[C@]2(C)[C@@H]1[C@H](O)C[C@@H]1[C@@]3(C)CC[C@H](O[C@@H]4O[C@H](CO)[C@@H](O)[C@H](O)[C@H]4O[C@@H]4O[C@H](CO)[C@@H](O)[C@H](O)[C@H]4O)C(C)(C)[C@@H]3CC[C@]12C 35.6
CC(C)=CCC[C@](C)(O[C@@H]1O[C@H](CO[C@@H]2OC[C@H](O)[C@H](O)[C@H]2O)[C@@H](O)[C@H](O)[C@H]1O)[C@H]1CC[C@]2(C)[C@@H]1[C@H](O)C[C@@H]1[C@@]3(C)CC[C@H](O[C@@H]4O[C@H](CO)[C@@H](O)[C@H](O)[C@H]4O[C@@H]4O[C@H](CO)[C@@H](O)[C@H](O)[C@H]4O)C(C)(C)[C@@H]3CC[C@]12C 38.2

====

# RUN DESCRIPTION: Pharmacokinetics of ginsenosides in human plasma after single or repeated
# Assay type: in vivo
# TEST CONTEXT: after oral ingestion of red ginseng extract; LC-MS/MS

COMPOUND	Detection in human plasma samples
CC(C)=CCC[C@](C)(O[C@@H]1O[C@H](CO[C@@H]2OC[C@H](O)[C@H](O)[C@H]2O)[C@@H](O)[C@H](O)[C@H]1O)[C@H]1CC[C@]2(C)[C@@H]1[C@H](O)C[C@@H]1[C@@]3(C)CC[C@H](O[C@@H]4O[C@H](CO)[C@@H](O)[C@H](O)[C@H]4O[C@@H]4O[C@H](CO)[C@@H](O)[C@H](O)[C@H]4O)C(C)(C)[C@@H]3CC[C@]12C [Rb2]	detected
CC(C)=CCC[C@](C)(O[C@@H]1O[C@H](CO[C@@H]2O[C@H](CO)[C@@H](O)[C@H](O)[C@H]2O)[C@@H](O)[C@H](O)[C@H]1O)[C@H]1CC[C@]2(C)[C@@H]1[C@H](O)C[C@@H]1[C@@]3(C)CC[C@H](O[C@@H]4O[C@H](CO)[C@@H](O)[C@H](O)[C@H]4O[C@@H]4O[C@H](CO)[C@@H](O)[C@H](O)[C@H]4O)C(C)(C)[C@@H]3CC[C@]12C [Rb1]	detected
CC(C)=CCC[C@](C)(O)[C@H]1CC[C@]2(C)[C@@H]1[C@H](O)C[C@@H]1[C@@]3(C)CC[C@H](O)C(C)(C)[C@@H]3[C@@H](O[C@@H]3O[C@H](CO)[C@@H](O)[C@H](O)[C@H]3O)C[C@]12C [Rh1]	could not be found
CC(C)=CCC[C@](C)(O[C@@H]1O[C@H](CO[C@@H]2O[C@@H](CO)[C@H](O)[C@H]2O)[C@@H](O)[C@H](O)[C@H]1O)[C@H]1CC[C@]2(C)[C@@H]1[C@H](O)C[C@@H]1[C@@]3(C)CC[C@H](O[C@@H]4O[C@H](CO)[C@@H](O)[C@H](O)[C@H]4O[C@@H]4O[C@H](CO)[C@@H](O)[C@H](O)[C@H]4O)C(C)(C)[C@@H]3CC[C@]12C [Rc]	detected
CC(C)=CCC[C@](C)(O[C@@H]1O[C@H](CO)[C@@H](O)[C@H](O)[C@H]1O)[C@H]1CC[C@]2(C)[C@@H]1[C@H](O)C[C@@H]1[C@@]3(C)CC[C@H](O)C(C)(C)[C@@H]3[C@@H](O[C@@H]3O[C@H](CO)[C@@H](O)[C@H](O)[C@H]3O)C[C@]12C [Rg1]	could not be found
CC(C)=CCC[C@](C)(O[C@@H]1O[C@H](CO)[C@@H](O)[C@H](O)[C@H]1O)[C@H]1CC[C@]2(C)[C@@H]1[C@H](O)C[C@@H]1[C@@]3(C)CC[C@H](O[C@@H]4O[C@H](CO)[C@@H](O)[C@H](O)[C@H]4O[C@@H]4O[C@H](CO)[C@@H](O)[C@H](O)[C@H]4O)C(C)(C)[C@@H]3CC[C@]12C [Rd]	detected
